Where do the numbers come from? From patent US20090208538A1.

Catalogue of binders with associated log10 of ED50
# target_under_test: HLA-B*0702 (human)
# experimental_protocol: iTopia affinity
result_type: log10 of ED50 (log10 of the value in µM)

• EVAEMRQML [cdr2 253-261 EVAEMRQML] = 1.26
• ENSELEQQL [cdr2 229-237 ENSELEQQL] = 1.97
• KPAPSFACL [cdr2 153-161 KPAPSFACL] = 0.74
• EQRTKYRSL [cdr2 442-450 EQRTKYRSL] = 2.00
• KQVELLRQM [cdr2 68-76 KQVELLRQM] = 2.26
• VPESHRKPL [cdr2 298-306 VPESHRKPL] = 1.00
